assay_notes: NCI Yeast Anticancer Drug Screen. Data for the mec2-1 strain (AID 157)
particulars: S. cerevisiae mec2-1 strain, at 50.0 µM, stronger effect = higher value
The panel holds about 79,000 compounds, 15% with a hit somewhere; the sample as a whole holds those more often.
Using growth inhibition as the sorting value, the categories are bin A = under 30%, bin B = from 30% up to 80%, bin C = 80% and over

CN1C=C(C#N)CCC1Sc1ccc(Cl)cc1 (stereo unspecified); bin B
CCCC(=O)Oc1ccc([N+](=O)[O-])cc1; bin A
O=C1OCCCOC(=O)c2cc(ccc2O)OCC#CC#CCOc2ccc(O)c1c2; bin A
CCN(CC)CCOc1c(Cl)c(Cl)c(Cl)c(Cl)c1Cl; bin B
CC(=O)Oc1cc2c(=O)oc3c(OC(C)=O)c(OC(C)=O)c(OC(C)=O)c4c(=O)oc(c1OC(C)=O)c2c34; bin B
COc1ccc2c(c1)CCC1OC(c3cccnc3)OC21 (stereo unspecified); bin B
CN=C(N)N/N=C(\C)c1ccc2c(c1)Cc1cc(Cl)ccc1-2; bin C
C=CC(=O)Oc1ccccc1/C=C/C(=O)CCCCCC; bin C
Cc1ccc(NC(=S)SCc2ccc(Cl)cc2)cc1Br; bin C
CCN(CC)c1ccc(NC(C(=O)c2ccccc2)c2ccc3c(c2)OCO3)cc1 (stereo unspecified); bin B

Q: Tag the class for CS(=O)(=O)n1c(C(O)c2ccccc2)nc2ccccc21 (stereo unspecified)
A: bin A

Provenance of the data: PubChem BioAssay (NCI)
